Attribute: MIC
Test system: S. cerevisiae Y2760 overexpressed H. sapiens wild-type CYP51 (HsCYP51)
Assay: MIC, recombinant S. cerevisiae strain Y2760 HsCYP51
Type: cell-based
Details: Saccharomyces cerevisiae; SD medium pH 6.8, 30 °C; 80% inhibition of growth; read-out: MIC Y2760 HsCYP51

q: Kindly state the measured MIC obtained for OC(Cn1cncn1)(Cn1cncn1)c1ccc(F)cc1F [FLZ, Fluconazole, reference compound] with S. cerevisiae Y2760 overexpressed H. sapiens wild-type CYP51 (HsCYP51).
a: > 128 µg/mL

q: Kindly state the measured MIC obtained for O=C(NCC(O)(Cn1cncn1)c1ccc(Cl)cc1Cl)c1ccc(NC(=O)c2ccc(Cl)cc2)cc1 (centres unmarked) [13b] with S. cerevisiae Y2760 overexpressed H. sapiens wild-type CYP51 (HsCYP51).
a: 4 to 8 µg/mL

q: Kindly state the measured MIC obtained for O=C(NCC(O)(Cn1cncn1)c1ccc(Cl)cc1)c1ccc(NC(=O)c2ccc(Cl)cc2)cc1 (centres unmarked) [13a] with S. cerevisiae Y2760 overexpressed H. sapiens wild-type CYP51 (HsCYP51).
a: > 16 µg/mL

q: Kindly state the measured MIC obtained for O=C(NCC(O)(Cn1cncn1)c1ccc(Cl)cc1Cl)c1csc(Cl)n1 (centres unmarked) [7b] with S. cerevisiae Y2760 overexpressed H. sapiens wild-type CYP51 (HsCYP51).
a: > 16 µg/mL

q: Kindly state the measured MIC obtained for CC[C@@H]([C@H](C)O)n1ncn(-c2ccc(N3CCN(c4ccc(OC[C@@H]5CO[C@@](Cn6cncn6)(c6ccc(F)cc6F)C5)cc4)CC3)cc2)c1=O [PCZ, posaconazole, reference compound] with S. cerevisiae Y2760 overexpressed H. sapiens wild-type CYP51 (HsCYP51).
a: 8 µg/mL

====

Here we list molecules with their recorded pIC50 when tested on C. albicans CYP51 (CaCYP51) (Candida albicans, UniProt P10613).
Sequence (P10613 whole entry): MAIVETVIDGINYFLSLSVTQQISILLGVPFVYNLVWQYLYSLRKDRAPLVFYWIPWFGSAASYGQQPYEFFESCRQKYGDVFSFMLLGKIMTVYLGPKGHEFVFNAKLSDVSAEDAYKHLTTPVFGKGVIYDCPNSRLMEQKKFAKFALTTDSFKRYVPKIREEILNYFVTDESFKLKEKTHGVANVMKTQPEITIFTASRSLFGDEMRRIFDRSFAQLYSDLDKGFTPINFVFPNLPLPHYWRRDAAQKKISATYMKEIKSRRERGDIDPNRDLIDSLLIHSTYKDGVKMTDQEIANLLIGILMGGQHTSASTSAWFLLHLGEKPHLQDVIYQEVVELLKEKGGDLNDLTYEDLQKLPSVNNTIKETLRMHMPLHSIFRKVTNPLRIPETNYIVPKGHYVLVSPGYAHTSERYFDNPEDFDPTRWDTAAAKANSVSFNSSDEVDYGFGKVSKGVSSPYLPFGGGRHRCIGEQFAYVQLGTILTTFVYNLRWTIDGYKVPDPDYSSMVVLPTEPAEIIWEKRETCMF
pIC50 is defined as minus the log10 of a concentration measured in mol/L.

Solved entries (count: 2):
O=C(NCC(O)(Cn1cncn1)c1ccc(Cl)cc1Cl)c1ccc(NC(=S)Nc2ccc(Cl)cc2)cc1 (stereo not shown) [11b] ... 6.17
O=C(NCC(O)(Cn1cncn1)c1ccc(Cl)cc1Cl)c1ccc(NS(=O)(=O)c2ccc(Cl)cc2)cc1 (stereo not shown) [14b] ... 6.11

q: Kindly state the measured pIC50 obtained for O=C(Nc1ccc(Cl)cc1)Nc1ccc(C(=O)NCC(O)(Cn2cncn2)c2ccc(Cl)cc2Cl)cc1 (stereo not shown) [12b] with C. albicans CYP51 (CaCYP51) (Candida albicans, UniProt P10613).
a: 6.33

q: Kindly state the measured pIC50 obtained for O=C(NCC(O)(Cn1cncn1)c1ccc(Cl)cc1Cl)c1ccc(NC(=O)c2ccc(Cl)cc2)cc1 (stereo not shown) [13b] with C. albicans CYP51 (CaCYP51) (Candida albicans, UniProt P10613).
a: 6.32

====

Attribute: Kd
Target: native CaCYP51 (Candida albicans, UniProt P10613)
Construct: made in house; host or cells: E. coli
Assay: CaCYP51 type II ligand binding affinity (Kd) from difference spectra saturation curves
Conditions: 2.5 μM native CaCYP51; mean ± SD of three titrations; read-out: K d
Give the quantity in nM, number only.

O=C(NCC(O)(Cn1cncn1)c1ccc(Cl)cc1Cl)c1ccc(NC(=S)Nc2ccc(Cl)cc2)cc1 (stereo not drawn) [11b] ... 125

q: Query: Kd; subject: CC(=O)c1cccc(C(=O)NCC(O)(Cn2cncn2)c2ccc(Cl)cc2Cl)c1 (stereo not drawn)
a: 229

q: Query: Kd; subject: O=C(NCC(O)(Cn1cncn1)c1ccc(Cl)cc1)c1csc(Cl)n1 (stereo not drawn)
a: 635

q: Query: Kd; subject: O=C(Nc1ccc(Cl)cc1)Nc1ccc(C(=O)NCC(O)(Cn2cncn2)c2ccc(Cl)cc2Cl)cc1 (stereo not drawn) [12b]
a: 137

q: Query: Kd; subject: O=C(NCC(O)(Cn1cncn1)c1ccc(Cl)cc1Cl)c1csc(Cl)n1 (stereo not drawn)
a: 106

q: Query: Kd; subject: O=C(NCC(O)(Cn1cncn1)c1ccc(Cl)cc1Cl)c1ccc(NC(=O)c2ccc(Cl)cc2)cc1 (stereo not drawn) [13b]
a: 166

q: Query: Kd; subject: CC(=O)c1cccc(C(=O)NCC(O)(Cn2cncn2)c2ccc(Cl)cc2)c1 (stereo not drawn)
a: 1440

q: Query: Kd; subject: O=C(NCC(O)(Cn1cncn1)c1ccc(Cl)cc1Cl)c1ccc(NS(=O)(=O)c2ccc(Cl)cc2)cc1 (stereo not drawn) [14b]
a: 94

q: Query: Kd; subject: O=C(NCC(O)(Cn1cncn1)c1ccc(Cl)cc1)c1ccc(NC(=O)c2ccc(Cl)cc2)cc1 (stereo not drawn) [13a]
a: 46

Measured values drawn from paper PMC11931565 for this set.
